Experimental System: 5-HT transporter (Rattus norvegicus, UniProt P31652)
Construct: synaptosomes of rat brain areas are freshly isolated; from tissue; host or cells: rat brain synaptosomes (P2 fraction) from marrow and pons
Sequence (P31652 whole entry): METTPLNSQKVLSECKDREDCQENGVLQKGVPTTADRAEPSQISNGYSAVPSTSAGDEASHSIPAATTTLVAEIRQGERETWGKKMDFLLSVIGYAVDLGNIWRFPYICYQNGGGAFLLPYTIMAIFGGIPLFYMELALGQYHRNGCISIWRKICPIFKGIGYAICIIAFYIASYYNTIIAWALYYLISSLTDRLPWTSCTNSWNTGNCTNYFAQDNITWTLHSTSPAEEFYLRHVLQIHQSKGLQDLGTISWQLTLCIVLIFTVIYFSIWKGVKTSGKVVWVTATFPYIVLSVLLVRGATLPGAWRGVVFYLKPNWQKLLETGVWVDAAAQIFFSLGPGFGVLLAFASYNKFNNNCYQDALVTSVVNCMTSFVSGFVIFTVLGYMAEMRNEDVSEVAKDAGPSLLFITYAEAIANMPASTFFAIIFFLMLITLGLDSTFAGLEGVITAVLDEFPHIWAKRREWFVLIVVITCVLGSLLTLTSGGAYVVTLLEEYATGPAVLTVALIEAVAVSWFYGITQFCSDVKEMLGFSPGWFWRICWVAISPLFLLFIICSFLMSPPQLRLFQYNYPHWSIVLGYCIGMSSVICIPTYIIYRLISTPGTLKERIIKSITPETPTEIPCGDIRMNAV
Assay Method Text: Inhibition of 5-HT uptake in rat brain synaptosomes
Format: biochemical
Cond: read-out: Uptake 5-HT, % inhibition; Table III; rat, 1 μM
List of inhibition at 1 µM values.

### Prompt Quick one: inhibition at 1 µM of C#CCN1C(=O)C(Cc2ccccc2)NC12CCN(C(=O)COC)CC2 (centres unmarked) ?
### Response 43%

### Prompt // query: CCCC(C)C(=O)N1CCC2(CC1)NC(CC(C)C)C(=O)N2CC(=O)OCC (centres unmarked)
### Response 38%

### Prompt // query: CCCCN1C(=O)C(Cc2ccccc2)NC12CCN(C(=O)C1CCCCC1)CC2 (centres unmarked)
### Response 63%

### Prompt // query: `CCOC(=O)CC(=O)N1CCC2(CC1)NCC(=O)N2CCOc1ccccc1`
### Response 47%

### Prompt // query: Cc1ccc(C(=O)N2CCC3(CC2)NC(Cc2ccccc2)C(=O)N3C)cc1F (centres unmarked)
### Response 43%

Cited source for all entries: patent US7951815B2
